- Tested on: human ovarian cancer cell line ES-2
- protocol: Cell viability (CellTiter Glo) of ES-2 in combination with cisplatin or carboplatin
- Type: cell-based
- assay-setup: Homo sapiens, ES-2; used in combination with cisplatin (10 μmol/L, Table 3)
- Text: On the combinational effect of the embodiment of the invention, the results of evaluation using a combination index (CI) which is a quantitative index of the combinational effect are shown. The CI can be calculated by the following equation according to Cancer Research, 2010, Vol. 70, pp. 440 to 446. That is, in a case where the drugs to be used in combination are drug 1 and drug 2, the CI at a certain drug concentration is […]
quantity-measured: pIC50
Quick note: pIC50 values are minus log10 of concentrations in mol/L.

Which pIC50 value is on record for "Nc1ccn([C@@H]2S[C@H](CO)[C@@H](O)[C@@H]2F)c(=O)n1" ?
7.20
